Form field: TR-FRET ratio (one value per entry).
procedure-summary: TR-FRET detection interference compounds, primary screen, artefact control for PPARgamma SRC-1 recruitment agonists, biochemical, TR-FRET emission ratio (AID 1051)
recorded-conditions: TR-FRET detection artefact counter-screen, at 8 µM, hits give high values
In all, about 99,000 compounds went through this assay and about 340 (0.34%) were called active. The entries come from a sample that favours actives as a whole.
quantity-kind: TR-FRET ratio

compound=COc1ccc(OCC(=O)Nc2nnc(-c3ccco3)s2)cc1 quantity_kind="TR-FRET ratio" value_reported=2500
compound="C=CCO/N=C/C1=C(O)C(C(=O)OC)C(C)(C)CC1=O (configuration not stated)" quantity_kind="TR-FRET ratio" value_reported=1870
compound=CCOc1cc(CNn2c(C)nnc2SCC(=O)NC(C)(C)C)ccc1OCC(=O)NC(C)(C)C quantity_kind="TR-FRET ratio" value_reported=1840
compound=CCN(CCCNC(=O)CSc1cc(=O)n(C)c2cc(Cl)ccc12)Cc1ccccc1 quantity_kind="TR-FRET ratio" value_reported=3020
compound=CCOC(=O)Cc1csc(NC(=O)COc2ccc3c(C)cc(=O)oc3c2)n1 quantity_kind="TR-FRET ratio" value_reported=2450
compound=CCOc1ccc(CCNC(=O)CSc2cc(=O)n(C)c3ccc(Cl)cc23)cc1OCC quantity_kind="TR-FRET ratio" value_reported=2230
compound="CCN(CC)P(=O)(Nc1ccc(SC(F)F)cc1)c1ccc(N(C)C)cc1NC(=O)c1ccco1 (configuration not stated)" quantity_kind="TR-FRET ratio" value_reported=1800
compound="Cn1cc(CCC(=O)N2CCCC(C(=O)c3ccc(C(C)(C)C)cc3)C2)cn1 (configuration not stated)" quantity_kind="TR-FRET ratio" value_reported=2020
compound=O=C(CSc1cccc[n+]1[O-])NCCCc1ccccc1 quantity_kind="TR-FRET ratio" value_reported=1620
compound=Cn1c(=O)cc(SCC(=O)N2CCCC2)c2cc(Cl)ccc21 quantity_kind="TR-FRET ratio" value_reported=3640
compound=CCOC(=O)Cc1csc(NC(=O)CSc2ccc(Br)cc2)n1 quantity_kind="TR-FRET ratio" value_reported=1780
compound=COc1cccc(NC(=S)NCc2ccccn2)c1 quantity_kind="TR-FRET ratio" value_reported=1990
compound=CN(CCOc1ccc(Br)cc1)CC(=O)Nc1cccc(S(=O)(=O)NC2=NCCC2)c1 quantity_kind="TR-FRET ratio" value_reported=1830
compound=CCOC(=O)Cc1csc(SCc2cc(=O)oc3cc(O)ccc23)n1 quantity_kind="TR-FRET ratio" value_reported=1620
compound="C/C(=N/O)c1ccc(N2C(=O)C3C4C=CC(C3C2=O)C2C3C(=O)N(c5ccc(/C(C)=N/O)cc5)C(=O)C3C42)cc1 (configuration not stated)" quantity_kind="TR-FRET ratio" value_reported=1760
compound=O=C(CCN1C(=O)c2ccccc2C1=O)NNC(=O)c1ccc(Cl)cc1Cl quantity_kind="TR-FRET ratio" value_reported=2130
compound="O=C(CCC1CCCN(C(=O)Cc2ccc(F)cc2)C1)N1CCN(c2ccccn2)CC1 (configuration not stated)" quantity_kind="TR-FRET ratio" value_reported=1640
compound=CNS(=O)(=O)c1ccc(N2CCCC2=O)c([N+](=O)[O-])c1 quantity_kind="TR-FRET ratio" value_reported=1690
compound=CCN(CC)S(=O)(=O)c1ccc(Cl)c(NC(=O)c2ccncc2)c1 quantity_kind="TR-FRET ratio" value_reported=1750
compound="COC(=O)c1ccc(CN2CCN(CCCc3ccccc3)C(CCO)C2)cc1 (configuration not stated)" quantity_kind="TR-FRET ratio" value_reported=1770
compound=CC(=O)N/N=C(\C)c1ccc(Br)cc1Br quantity_kind="TR-FRET ratio" value_reported=1740
compound=O=C(O)Cc1ccc(-c2ccccc2)cc1 quantity_kind="TR-FRET ratio" value_reported=1790

###

procedure-summary: TR-FRET detection interference compounds, primary screen, artefact control for PPARgamma SRC-1 recruitment agonists, biochemical, TR-FRET emission ratio (AID 1051)
recorded-conditions: TR-FRET detection artefact counter-screen, at 8 µM, hits give high values
About 340 (0.34%) of roughly 99,000 compounds were called active. What follows is part of a selection rich in actives, with near analogues and random picks from the rest.
quantity-kind: TR-FRET ratio

molecule=Cc1noc(C)c1COc1cccc(C(=O)Nc2cccnc2)c1 quantity_kind="TR-FRET ratio" value_reported=1740
molecule=CCOC(=O)CCCNC(=O)COC(=O)/C=C/c1ccc2c(c1)OCO2 quantity_kind="TR-FRET ratio" value_reported=1620
molecule=CCN(CC)C(=O)Cn1cc(S(=O)(=O)CC(=O)NCc2ccc3c(c2)OCO3)c2ccccc21 quantity_kind="TR-FRET ratio" value_reported=1870
molecule=CCn1c(COc2ccccc2)nnc1SCC(=O)NCc1ccco1 quantity_kind="TR-FRET ratio" value_reported=1770
molecule=O=C(CO/N=C/c1ccc(OC(F)F)cc1)NCc1ccc(F)cc1 quantity_kind="TR-FRET ratio" value_reported=1970
molecule="Cc1c(CN2CCCC(C(=O)c3cccc(Cl)c3)C2)c(=O)n(-c2ccccc2)n1C (stereo unspecified)" quantity_kind="TR-FRET ratio" value_reported=1510
molecule=CC(=O)N(CCCN(C)C)c1nc2ccc(C)cc2s1 quantity_kind="TR-FRET ratio" value_reported=2080
molecule=CN1CCN(CC#CCC2(O)c3ccccc3-c3ccccc32)CC1 quantity_kind="TR-FRET ratio" value_reported=1610
molecule="Cc1cc(C)cc(C(=O)N(CCc2ccccc2)C2=CC3CCC(C2)N3C)c1 (stereo unspecified)" quantity_kind="TR-FRET ratio" value_reported=1720
molecule=CC(=O)Nc1ccc(S(=O)(=O)Nc2ccc(-c3ccc4nnc(C)n4n3)cc2)cc1 quantity_kind="TR-FRET ratio" value_reported=1930
molecule=O=C(/C=C\c1ccc2c(c1)OCO2)NC1(C(=O)Nc2ccc3c(c2)OCCO3)CCCCC1 quantity_kind="TR-FRET ratio" value_reported=1600

###

Form field: TR-FRET ratio (one value per entry).
procedure-summary: TR-FRET detection interference compounds, primary screen, artefact control for PPARgamma SRC-1 recruitment agonists, biochemical, TR-FRET emission ratio (AID 1051)
recorded-conditions: TR-FRET detection artefact counter-screen, at 8 µM, hits give high values
About 340 (0.34%) of roughly 99,000 compounds were called active. Many of the other results were omitted from the sample, so actives are more common in it than they were.
quantity-kind: TR-FRET ratio

compound=CCN(CC)c1ccc(C(=O)c2cnc(/N=C/N(C)C)s2)cc1 value_reported=1790
compound=CC(C)CCN1C(=O)c2ccc(C(=O)Nc3cccc(S(N)(=O)=O)c3)cc2C1=O value_reported=1840
compound=CCOc1c(CNCc2ccc(C(=O)O)cc2)cccc1OC value_reported=1910
compound="COCc1c(C(=O)N/N=C/C2CC=CCC2)nnn1-c1nonc1N (stereo not given)" value_reported=1650
compound=O=C(NCc1cccs1)c1cc(-c2ccccn2)nc2ccc(Br)cc12 value_reported=2520
compound="CCOc1ccc(/C=N/NC(=O)C(C)Sc2ccccn2)cc1OCC (stereo not given)" value_reported=1650
compound=Cc1ccc(C(=O)NCC(=O)O)cc1S(=O)(=O)N1CCCCC1 value_reported=1790
compound=CC(=O)c1cccc(CN2CCC(CO)(Cc3ccccc3)CC2)c1 value_reported=1590
compound=O=S(=O)(c1ccc(-c2ccccc2)cc1)N1CCCC1 value_reported=1580
compound=O=C(NNC1=C(C(=O)C(F)(F)F)CCC1)c1ccncc1 value_reported=1980
compound=O=S(=O)(Nc1cc(S(=O)(=O)N2CCOCC2)ccc1N1CCCC1)c1cccs1 value_reported=1650
compound=Cc1ccc2nc(-c3cccc(Br)c3)cc(C(=O)Nn3cnnc3)c2c1 value_reported=1660
compound=CCOc1ccc(N(CC(=O)NCCc2ccc(OC)cc2)S(C)(=O)=O)cc1 value_reported=1790
compound=CCC(=O)N(Cc1cc2ccccc2[nH]c1=O)c1ccc(OC)cc1 value_reported=1990
compound=CCCC(=O)OCC(=O)Nc1cc(Cl)ccc1[N+](=O)[O-] value_reported=1580
compound=COc1ccc(C/C(C)=N/NC(=O)c2ccncc2)cc1 value_reported=1920
compound="CNC(=O)NC(=O)C(OC(=O)c1cccc(S(=O)(=O)N2CCCCC2)c1)c1ccccc1 (stereo not given)" value_reported=1550
compound=O=C(CO/N=C/c1ccccc1OC(F)F)NC1CCCC1 value_reported=2060
compound=COc1ccc(NC(=O)COC(=O)c2ccncc2)c(OC)c1 value_reported=1980
compound=S=c1[nH]nc(COc2ccccc2)n1-c1ccccc1 value_reported=1980
compound=Cc1cccc(OCc2ccc(C(=O)Nc3ccc(F)cc3)cc2)c1 value_reported=1720
compound="CCN(CCn1cccn1)C(=O)CC1C(=O)NCCN1Cc1cccc(OC)c1OC (stereo not given)" value_reported=1620
compound=CSc1ccc(/C=N/N2CCN(Cc3ccccc3Cl)CC2)cc1 value_reported=1700
compound=CN(C)c1ccc(N/C=C/C(=O)C(F)(F)F)cc1 value_reported=2320
compound="CCC(=O)N1c2ccccc2NC2=C(C(=O)CCC2)C1c1ccco1 (stereo not given)" value_reported=1690
compound=C/C(=N/OC(=O)c1cccc(C(F)(F)F)c1)c1cnccn1 value_reported=1580
compound="Cc1ccccc1CC1(CO)CCCN(Cc2ccc3c(c2)OCCO3)C1 (stereo not given)" value_reported=1710
compound="CC(OC(=O)CNS(=O)(=O)/C=C/c1ccccc1)C(=O)Nc1ccc(S(=O)(=O)N2CCCC2)cc1 (stereo not given)" value_reported=1670
compound=COc1cc(NS(=O)(=O)c2ccc(NC(=O)c3ccc(S(=O)(=O)N4CCCCC4)cc3)cc2)ncn1 value_reported=1650
compound=COc1cccc(NC(=O)c2ccc(S(=O)(=O)N(C)C)cc2)c1 value_reported=1680
compound=O=C(O)Cc1sc(-c2ccc(C(=O)O)cc2)nc1-c1ccccc1 value_reported=1940
compound="Cc1coc(C)c1C(=O)CC1(O)C(=O)N(C)c2ccc(Cl)cc21 (stereo not given)" value_reported=1870
compound=Cc1ccc(-c2cn3cc([N+](=O)[O-])ccc3n2)cc1 value_reported=1970
compound="CC(CC(=O)O)CC(=O)NNC(=O)c1cccc(Br)c1 (stereo not given)" value_reported=1850
compound=O=C(COC(=O)c1cc(-c2cccs2)nn1-c1ccccc1)Nc1cc([N+](=O)[O-])ccc1Cl value_reported=2060
compound=COc1ccc(-n2nnnc2SCC(=O)NCc2cccs2)cc1 value_reported=1830
compound=O=S(=O)(NCc1ccccc1)c1ccc(S(=O)(=O)N2CCCC2)cc1 value_reported=1770
compound=O=C(N/N=C/c1ccc([N+](=O)[O-])o1)c1cccc(S(=O)(=O)N2CCOCC2)c1 value_reported=2000
compound=O=C(NCc1ccccn1)c1cc(Br)ccc1Cl value_reported=1780
compound=OCC1(CCc2ccccc2)CCN(Cc2ccc3nsnc3c2)CC1 value_reported=2510
compound=CC(C)CNC(=O)C(=O)Nc1ccc(N(C)C)cc1 value_reported=1880
compound=Cc1ccc(OC(=O)CCC(=O)Nc2ccc(Br)cc2)cc1 value_reported=1980
compound=CC(C)OC(=O)CN1CCN(c2ccc(Cl)cc2)CC1 value_reported=1890
compound=Cc1ccc(-c2cc(C(=O)NCc3cn(C)nc3C)c3cc(Br)ccc3n2)cc1 value_reported=2880
compound=COc1cc(NC(=O)COC(=O)CSc2ccc3ccccc3c2)c(C)cc1[N+](=O)[O-] value_reported=1730
